assay: Thermal stability of CD58 variants by differential scanning fluorimetry (DSF); type: physicochemical
Reported values of Tm by Differential Scanning Fluorimetry (DSF) for individual entries
// note: answer is a bare numeric in °C

Exercise: Please report the measured Tm by Differential Scanning Fluorimetry (DSF) for CD58 Full ECD: recombinant human CD58 full extracellular domain (protein) SQQIYGVVYGNVTFHVPSNVPLKEVLWKKQKDKVAELENSEFRAFSSFKNRVYLDTVSGSLTIYNLTSSDEDEYEMESPNITDTMKFFLYVLESLPSPTLTCALTNGSIEVQCMIPEHYNSHRGLIMYSWDCPMEQCKRNSTSIYFKMENDLPQKIQCTLSNPLFNTTSSIILTTCIPSSGHSRHRGGGGSHHHHHHHH
Solution: 59.5

Exercise: Annotate the molecule IgV V54C_G88C: CD58 IgV domain with V54 and G88 replaced by cysteines (stabilizing disulfide) (protein) SQQIYGVVYGNVTFHVPSNVPLKECLWKKQKDKVAELENSEFRAFSSFKNRVYLDTVSCSLTIYNLTSSDEDEYEMESPNITDTMKFFLYVLESGGGGSHHHHHHHH with its measured Tm by Differential Scanning Fluorimetry (DSF).
Solution: 76.5

Exercise: Fill in reported Tm by Differential Scanning Fluorimetry (DSF) for this entry: CD58_IgV: recombinant human CD58 IgV domain (domain 1), no added disulfide (protein) SQQIYGVVYGNVTFHVPSNVPLKEVLWKKQKDKVAELENSEFRAFSSFKNRVYLDTVSGSLTIYNLTSSDEDEYEMESPNITDTMKFFLYVLESGGGGSHHHHHHHH
Solution: 48.5

Exercise: Fill in Tm by Differential Scanning Fluorimetry (DSF) for record IgV V45C_M114C: CD58 IgV domain with V45 and M114 replaced by cysteines (stabilizing disulfide) (protein) SQQIYGVVYGNVTFHCPSNVPLKEVLWKKQKDKVAELENSEFRAFSSFKNRVYLDTVSGSLTIYNLTSSDEDEYEMESPNITDTCKFFLYVLESGGGGSHHHHHHHH
Solution: 63.5
